We begin with a simple list: items and their reported PAM_type.
biological target: hα7-wt nAChR (Homo sapiens); construct: expressed in transfected cells; host or cells: GH4C1 cells (recombinant, stably over-expressing); assay: Whole-cell voltage-clamp recording, PAM type classification; assay type: cell-based; design: key: Type 1 compounds enhance the effect size of the current elicited by 1 mM choline but minimally alter the kinetics of the receptor.; Type 2 compounds enhance the effect size of the current elicited by 1 mM choline while reducing the rate and/or the extent of desensitization.; Type 3 compounds enhance the effect size of the current elicited by 1 mM choline. When tested at higher concentrations up to 10 μM they completely inhibit desensitization, in particular a 1 mM choline application of 250 milliseconds.; Type 4 compounds allow for an initial desensitization of the receptor followed by a re-opening of the receptor during agonist application; details: qualitative kinetic properties; 1 mM choline; hα7-wt nAChR-expressing GH4C1 cells
Counter-ions that a name gives are not always drawn.
PROPERTY: PAM_type

INSERT INTO results (molecule, property, endpoint_result) VALUES
  ('CCC(O)Cn1nc(Nc2cc(OC)cc(C(F)(F)F)c2)nc1-c1ccnc(C)c1 (single isomer, unassigned) [Compound E28]', 'PAM_type', 2),
  ('CCC(O)Cn1nc(Nc2cccc(Cl)c2)nc1-c1cc(C)nc(C)c1 (single isomer, unassigned) [Compound E21]', 'PAM_type', 2),
  ('CC[C@H](O)Cn1nc(Nc2cc(F)cc(OC)c2)nc1-c1ccnc(C)c1 [Compound E36, HCl salt]', 'PAM_type', 2);

----------
molecular target: hα7-wt nAChR (Homo sapiens, UniProt P36544); test: Ca2+ flux imaging (FDSS), potentiation of choline response; details: hα7-wt nAChR-expressing GH4C1 cells; potentiation of 100 μM choline; compounds 0.01 μM to 30 μM
Sequence (P36544 23-502): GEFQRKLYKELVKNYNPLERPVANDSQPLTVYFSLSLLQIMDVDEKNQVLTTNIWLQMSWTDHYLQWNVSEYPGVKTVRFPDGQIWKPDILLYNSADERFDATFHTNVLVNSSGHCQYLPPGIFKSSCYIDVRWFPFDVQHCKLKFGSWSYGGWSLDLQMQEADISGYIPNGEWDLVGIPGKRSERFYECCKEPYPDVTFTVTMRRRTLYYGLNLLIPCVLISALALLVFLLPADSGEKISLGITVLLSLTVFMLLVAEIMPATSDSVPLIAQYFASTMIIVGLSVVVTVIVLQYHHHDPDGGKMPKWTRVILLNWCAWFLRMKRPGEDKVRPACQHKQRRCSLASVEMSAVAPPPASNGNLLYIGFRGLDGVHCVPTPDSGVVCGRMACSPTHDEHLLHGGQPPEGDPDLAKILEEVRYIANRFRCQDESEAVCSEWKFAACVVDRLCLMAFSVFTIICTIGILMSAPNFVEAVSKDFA
Structures can show the parent of a compound that is named as a salt.
// classify(record): look up EC50 in ranges bin 0: < 400 nM; bin 1: ≥ 400 nM and < 900 nM; bin 2: ≥ 900 nM

INSERT INTO measurements (compound, system_tested, group_label) VALUES
  ('CC[C@H](O)Cn1nc(Nc2ccc(F)c(C)c2)nc1-c1ccnc(C)c1', 'hα7-wt nAChR (Homo sapiens, UniProt P36544)', 'bin 2'),
  ('CCC(O)Cn1nc(Nc2ccc(F)c(F)c2)nc1-c1ccnc(NCCOC)c1 (centres unmarked)', 'hα7-wt nAChR (Homo sapiens, UniProt P36544)', 'bin 2'),
  ('CCC(O)Cn1nc(Nc2cccc(Cl)c2)nc1-c1ccnc(C)c1 (centres unmarked)', 'hα7-wt nAChR (Homo sapiens, UniProt P36544)', 'bin 2'),
  ('CCCCC(O)Cn1nc(Nc2ccc(F)c(F)c2)nc1-c1cc(C)nc(C)c1 (single isomer, unassigned; (+)) [Compound E5]', 'hα7-wt nAChR (Homo sapiens, UniProt P36544)', 'bin 0'),
  ('CCCC(O)Cn1nc(Nc2ccc(F)c(F)c2)nc1-c1cc(C)nc(C)c1 (single isomer, unassigned) [Compound E14]', 'hα7-wt nAChR (Homo sapiens, UniProt P36544)', 'bin 0'),
  ('CC[C@H](O)Cn1nc(Nc2cc(F)cc(OC)c2)nc1-c1ccnc(C)c1 [Compound E36, HCl salt]', 'hα7-wt nAChR (Homo sapiens, UniProt P36544)', 'bin 2'),
  ('CCNc1cc(-c2nc(Nc3cccc(Cl)c3)nn2C[C@H](O)CC)ccn1', 'hα7-wt nAChR (Homo sapiens, UniProt P36544)', 'bin 2'),
  ('CC[C@H](O)Cn1nc(Nc2cccc(Cl)c2F)nc1-c1cc(C)nc(C)c1 [Compound E35, HCl salt]', 'hα7-wt nAChR (Homo sapiens, UniProt P36544)', 'bin 1'),
  ('CC[C@H](O)Cn1nc(Nc2cc(OC)cc(C(F)(F)F)c2)nc1-c1cc(C)nc(C)c1', 'hα7-wt nAChR (Homo sapiens, UniProt P36544)', 'bin 0'),
  ('CC[C@H](O)Cn1nc(Nc2ccc(F)c(F)c2F)nc1-c1cc(C)nc(C)c1', 'hα7-wt nAChR (Homo sapiens, UniProt P36544)', 'bin 1'),
  ('CC[C@H](O)Cn1nc(Nc2ccc(F)c(F)c2)nc1-c1cc(C)nc(C)c1 [Compound E1]', 'hα7-wt nAChR (Homo sapiens, UniProt P36544)', 'bin 1'),
  ('CCCCC(O)Cn1nc(Nc2ccc(F)c(F)c2)nc1-c1cc(C)nc(C)c1 (single isomer, unassigned; (-)) [Compound E4]', 'hα7-wt nAChR (Homo sapiens, UniProt P36544)', 'bin 0'),
  ('CCCC(O)Cn1nc(Nc2cccc(Cl)c2)nc1-c1cc(C)nc(C)c1 (single isomer, unassigned) [Compound E24]', 'hα7-wt nAChR (Homo sapiens, UniProt P36544)', 'bin 1'),
  ('CC[C@H](O)Cn1nc(Nc2ccc(F)c(F)c2F)nc1-c1cc(C)nc(C)c1.Cl [Compound E33, HCl salt]', 'hα7-wt nAChR (Homo sapiens, UniProt P36544)', 'bin 1'),
  ('CCCC(O)Cn1nc(Nc2ccc(F)c(F)c2)nc1-c1ccnc(C)c1 (single isomer, unassigned) [Compound E16]', 'hα7-wt nAChR (Homo sapiens, UniProt P36544)', 'bin 1'),
  ('CCCC(O)Cn1nc(Nc2ccc(F)c(F)c2)nc1-c1ccnc(C)c1 (single isomer, unassigned) [Compound E15]', 'hα7-wt nAChR (Homo sapiens, UniProt P36544)', 'bin 1'),
  ('CC[C@H](O)Cn1nc(Nc2cccc(Cl)c2F)nc1-c1cc(C)nc(C)c1 [Compound E34]', 'hα7-wt nAChR (Homo sapiens, UniProt P36544)', 'bin 0'),
  ('CCC(O)Cn1nc(Nc2cc(OC)cc(C(F)(F)F)c2)nc1-c1ccnc(C)c1 (single isomer, unassigned) [Compound E20]', 'hα7-wt nAChR (Homo sapiens, UniProt P36544)', 'bin 0'),
  ('CCC(O)Cn1nc(Nc2cccc(Cl)c2)nc1-c1cc(C)nc(C)c1 (single isomer, unassigned) [Compound E21]', 'hα7-wt nAChR (Homo sapiens, UniProt P36544)', 'bin 1'),
  ('CC[C@H](O)Cn1nc(Nc2cc(F)cc(OC)c2)nc1-c1cc(C)nc(C)c1.Cl [Compound E37, HCl salt]', 'hα7-wt nAChR (Homo sapiens, UniProt P36544)', 'bin 2'),
  ('CC[C@H](O)Cn1nc(Nc2ccc(F)c(F)c2F)nc1-c1ccnc(C)c1', 'hα7-wt nAChR (Homo sapiens, UniProt P36544)', 'bin 1'),
  ('CCC(O)Cn1nc(Nc2cccc(Cl)c2)nc1-c1cc(C)nc(C)c1 (single isomer, unassigned) [Compound E18]', 'hα7-wt nAChR (Homo sapiens, UniProt P36544)', 'bin 2'),
  ('CCC(O)Cn1nc(Nc2cc(OC)cc(C(F)(F)F)c2)nc1-c1ccnc(C)c1 (single isomer, unassigned) [Compound E28]', 'hα7-wt nAChR (Homo sapiens, UniProt P36544)', 'bin 2'),
  ('CCCC(O)Cn1nc(Nc2ccc(F)c(F)c2)nc1-c1cc(C)nc(C)c1 (single isomer, unassigned) [Compound E13]', 'hα7-wt nAChR (Homo sapiens, UniProt P36544)', 'bin 0'),
  ('CCC(O)Cn1nc(Nc2ccc(F)c(F)c2)nc1-c1ccnc(C)c1 (single isomer, unassigned) [Compound E6]', 'hα7-wt nAChR (Homo sapiens, UniProt P36544)', 'bin 2'),
  ('CCC(O)Cn1nc(Nc2ccc(F)c(F)c2)nc1-c1ccnc(C)c1 (single isomer, unassigned) [Compound E26]', 'hα7-wt nAChR (Homo sapiens, UniProt P36544)', 'bin 1'),
  ('CCNc1cc(-c2nc(Nc3cccc(Cl)c3)nn2C[C@@H](O)CC)ccn1 [Compound E2]', 'hα7-wt nAChR (Homo sapiens, UniProt P36544)', 'bin 0'),
  ('CCNc1cc(-c2nc(Nc3ccc(F)c(F)c3)nn2CC(O)CC)ccn1 (centres unmarked)', 'hα7-wt nAChR (Homo sapiens, UniProt P36544)', 'bin 1');
